# testedSystem: T1, 4H683-bH
# T1 chain: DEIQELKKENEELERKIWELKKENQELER
# procedureDetails: two-hybrid library CCNG1;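 note: natural log of median RNA to DNA barcode read ratio; higher means stronger binding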
So I've got a bunch of binders here, and I need their interaction score values.
Give a plain numeric answer without units written out.

Which measured interaction score value corresponds to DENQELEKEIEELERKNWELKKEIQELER [4H1081-bH] ?
-0.574

Could you tell me which interaction score is on file for DEIQELKKEIEELERKNWELKKKNQELER [4H575-bH] ?
-0.243

Look at this binder and give its reported interaction score. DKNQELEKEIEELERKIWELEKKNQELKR [4H3112-bH]
0.204

I'd like to know its interaction score. The binder in question is DEIQELKKENEELERKIWELKKENQELER [4H683-bH]
0.562

// lookup interaction score for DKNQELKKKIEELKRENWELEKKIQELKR [4H3926-bH]
-0.233

For the binder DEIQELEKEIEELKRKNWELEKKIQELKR [4H118-bH] , what interaction score is on record?
-0.584

I am curious: what interaction score value has been reported for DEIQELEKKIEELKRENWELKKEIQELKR [4H346-bH] ?
-1.17
